Assay: Solubility in Japanese Pharmacopeia First Fluid (JP1) and Second Fluid (JP2)
Assay type: physicochemical
Conditions: pH 6.8, aqueous buffer, thermodynamic from solid; Japanese Pharmacopeia Second Fluid (JP2), room temperature; read-out: Solubility JP2
Method: Method of Testing Solubility in Water and Neutral Buffer A 10 mmol/L solution of the test compound was prepared in DMSO and dispensed 100 μL of 10 mmol/L DMSO stock solutions into labeled glass tubes in duplicate, one for Japanese Pharmacopeia First Fluid (JP1) and second for Japanese Pharmacopeia Second Fluid (JP2). After evaporation of DMSO from each tube, 500 μL of JP1 and JP2 fluid were added in each tube, respectively. […]
Endpoint label: solubility at 30 min

See these solved cases before continuing.
>  <Smiles entry>
CCc1nc(C(=O)N[C@@H]2CCN(c3nnc([C@](C)(O)CO)s3)C[C@@H]2OC)n(COP(=O)(O)O)c1Cl

>  <solubility at 30 min>
> 1510 µg/mL

$$$$
>  <Smiles entry>
CCc1c(Cl)nc(C(=O)N[C@@H]2CCN(c3nnc(C(C)(C)O)s3)C[C@@H]2OC)n1COP(=O)(O)O

>  <solubility at 30 min>
> 1320 µg/mL

$$$$
>  <Smiles entry>
CCc1c(Cl)nc(C(=O)N[C@@H]2CCN(c3nnc([C@](C)(O)CO)s3)C[C@@H]2OC)n1COP(=O)(O)O

>  <solubility at 30 min>
> 1320 µg/mL

$$$$

Here is another molecule to look at.
Note solubility at 30 min for the molecule shown: `CCc1nc(C(=O)N[C@@H]2CCN(c3nnc(C(C)(C)O)s3)C[C@@H]2OC)n(COP(=O)(O)O)c1Cl`
> 1100 µg/mL

###

assay: Solubility in Japanese Pharmacopeia First Fluid (JP1) and Second Fluid (JP2); type: physicochemical; conditions: pH 1.2, simulated gastric fluid, thermodynamic from solid; Japanese Pharmacopeia First Fluid (JP1), room temperature; read-out: Solubility JP1
Endpoint label: solubility at 30 min

>  <Compound>
CCc1c(Cl)nc(C(=O)N[C@@H]2CCN(c3nnc(C(C)(C)O)s3)C[C@@H]2OC)n1COP(=O)(O)O [Compound No. 1]

>  <solubility at 30 min>
> 1280 µg/mL

$$$$

Note solubility at 30 min for the compound shown: CCc1nc(C(=O)N[C@@H]2CCN(c3nnc(C(C)(C)O)s3)C[C@@H]2OC)n(COP(=O)(O)O)c1Cl [Compound No. 2]
> 1120 µg/mL

Note solubility at 30 min for the compound shown: CCc1nc(C(=O)N[C@@H]2CCN(c3nnc([C@](C)(O)CO)s3)C[C@@H]2OC)n(COP(=O)(O)O)c1Cl [Compound No. 4]
> 1280 µg/mL

Note solubility at 30 min for the compound shown: CCc1c(Cl)nc(C(=O)N[C@@H]2CCN(c3nnc([C@](C)(O)CO)s3)C[C@@H]2OC)n1COP(=O)(O)O [Compound No. 3]
> 1350 µg/mL

###

test: Solubility of parent compounds and prodrugs in phosphate buffer; format: physicochemical; conditions: aqueous buffer, thermodynamic from solid; prodrug, phosphate buffer adjusted with NaOH, 25° C., more than 4 weeks, pH 7.0
Endpoint label: solubility (mg/mL)
Answer format: numeric, mg/mL implied, no suffix.

See these solved cases before continuing.
>  <Smiles entry>
CCc1nc(C(=O)N[C@@H]2CCN(c3nnc([C@@H](O)CO)s3)C[C@@H]2OC)n(COP(=O)(O)O)c1Cl

>  <Readout value>
105

$$$$
>  <Smiles entry>
CCc1c(Cl)nc(C(=O)N[C@@H]2CCN(c3nnc([C@H](O)CO)s3)C[C@@H]2OC)n1COP(=O)(O)O

>  <Readout value>
107

$$$$
>  <Smiles entry>
CCc1c(Cl)nc(C(=O)N[C@@H]2CCN(c3nnc([C@H](C)O)s3)C[C@@H]2OC)n1COP(=O)(O)O

>  <Readout value>
101

$$$$
>  <Smiles entry>
CCc1nc(C(=O)N[C@@H]2CCN(c3nnc([C@H](C)O)s3)C[C@@H]2OC)n(COP(=O)(O)O)c1Cl

>  <Readout value>
104

$$$$

Note solubility for the compound shown: `CCc1nc(C(=O)N[C@@H]2CCN(c3nnc([C@](C)(O)CO)s3)C[C@@H]2OC)n(COP(=O)(O)O)c1Cl`
102

Note solubility for the compound shown: `CCc1c(Cl)nc(C(=O)N[C@@H]2CCN(c3nnc([C@](C)(O)CO)s3)C[C@@H]2OC)n1COP(=O)(O)O`
107

Note solubility for the compound shown: `CCc1nc(C(=O)N[C@@H]2CCN(c3nnc([C@H](O)CO)s3)C[C@@H]2OC)n(COP(=O)(O)O)c1Cl`
102

Recorded values, source patent US10752647B2.
